Every entry's value here was drawn from patent US20240084009A1.

target: T1, biotinylated hu-CD3ε (human, UniProt P07766 23-126, limits assumed, biotinylated (site not stated)); test: kinetic Kd determination of the expressed scFv, method not named
T1 construct: The construct is not described; also called biotin-CD3ε; human CD3ε
T1 sequence (P07766 23-126 limits assumed): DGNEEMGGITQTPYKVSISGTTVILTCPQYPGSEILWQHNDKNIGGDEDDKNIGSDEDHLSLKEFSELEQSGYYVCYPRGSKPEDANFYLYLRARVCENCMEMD
Measure: Kd (nM)
Expressed in nM, but write only the number.

// solved cases for Kd follow
Binder	Kd [nM]
Anti-CD3, clone 10E4 (scFv, Expressed in Expi293 from the pcDNA3.4 His6 vector) scFv: EVQLVESGGGLVQPGGSLKLSCAASGFTFNKYPMNWVRQAPGKGLEWVARIRSKYNNYATYYADSVKDRFTISRDDSKNTAYLQMNNLKNEDTAVYYCVRHGNFNNSYISYWAYWGQGTLVTVSSGGGGSGGGGSGGGGSQTVVTQEPSLTVSPGGTVTLTCGSSTGAVTKGNYPNWVQQKPGQAPRGLIGGTKMLAPGTPARFSGSLLGGKAALTLSGVQPEDEAEYYCALWYSNRWVFGGGTKLTVLHHHHHH	49.8
Anti-CD3, clone 3F2 (scFv, Expressed in Expi293 from the pcDNA3.4 His6 vector) scFv: EVQLVESGGGLVQPGGSLKLSCAASGFTYNKYAMNWVRQAPGKGLEWVARIRSKYNNYATYYADEVKDRFTISRDDSKNTAYLQMNNLKTEDTAVYYCVRHGNFGNSPISYWAYWGQGTLVTVSSGGGGSGGGGSGGGGSQTVVTQEPSLTVSPGGTVTLTCGSSKGAVTSGNYPNWVQQKPGQAPRGLIGGTKELAPGTPARFSGSLLGGKAALTLSGVQPEDEAEYYCTLWYSNRWVFGGGTKLTVLHHHHHH	8
Anti-CD3, clone 2G5 (scFv, Expressed in Expi293 from the pcDNA3.4 His6 vector) scFv: EVQLVESGGGLVQPGGSLKLSCAASGFTFNKYALNWVRQAPGKGLEWVARIRSKYNNYATEYADSVKDRFTISRDDSKNTAYLQMNNLKTEDTAVYYCVRHGNFGNSPISYWAYWGQGTLVTVSSGGGGSGGGGSGGGGSQTVVTQEPSLTVSPGGTVTLTCGSSTGAVTSGNYPNWVQQKPGQAPRGLIGGTNFLAPGTPERFSGSLLGGKAALTLSGVQPEDEAEYYCVLWYSNRWAFGGGTKLTVLHHHHHH	117

State the recorded Kd for this entry: Anti-CD3, clone 6A2 (scFv, Expressed in Expi293 from the pcDNA3.4 His6 vector) scFv: EVQLVESGGGLVQPGGSLKLSCAASGFMFNKYAMNWVRQAPGKGLEWVARIRSKSNNYATYYADSVKDRFTISRDDSKNTAYLQMNNLKTEDTAVYYCVRHGNFGNSYISYWATWGQGTLVTVSSGGGGSGGGGSGGGGSQTVVTQEPSLTVSPGGTVTLTCGSSFGAVTSGNYPNWVQQKPGQAPRGLIGGTKLLAPGTPARFSGSLLGGKAALTLSGVQPEDEAEYYCVLWYSNSWVFGGGTKLTVLHHHHHH 4.7
